IC50 listing for selected compounds.
# Tested on: A2780 human ovarian cancer cells
# assayOverview: In vitro cell proliferation assay, A2780 (CellTiter-Glo)
# Type: cell-based
# settings: 72 hours
# Source text: In Vitro Cell Proliferation Assay […] CellTiter-Glo is a homogenous method based on the quantification of the ATP present, an indicator of metabolitically active cells. ATP is quantified using a system based on luciferase and D-luciferin resulting into light generation. […]

# testSmiles, IC50 (nM)
rows = [
    ("Cc1ccc(C(=O)Nc2n[nH]c3c2CN(C(=O)Nc2c(Cl)cccc2Cl)C3(C)C)cc1", 209),
    ("CN1CCN(c2ccc(C(=O)Nc3n[nH]c4c3CN(C(=O)Cc3ccccc3C(F)(F)F)C4(C)C)cc2)CC1", 380),
    ("CN1CCN(c2ccc(C(=O)Nc3n[nH]c4c3CN(C(=O)Cc3cccs3)C4(C)C)cc2)CC1", 71),
    ("CC1(C)c2[nH]nc(NC(=O)c3ccc(N)cc3)c2CN1C(=O)Nc1c(Cl)cccc1Cl", 63),
    ("CC1(C)c2[nH]nc(NC(=O)c3cccc(N)c3)c2CN1C(=O)Nc1c(Cl)cccc1Cl", 119),
    ("CCc1ccccc1NC(=O)N1Cc2c(NC(=O)c3ccc(N4CCN(C)CC4)cc3)n[nH]c2C1(C)C", 19),
]
